SUBJECT OF TEST: Muscarinic acetylcholine receptor M4 (Homo sapiens)
ASSAY NAME: M4-linked GIRK flux change, two-sided – cell-based, HEK293 M4/GIRK, thallium flux, BTC-AM, M4 allosteric agonist project, primary screen (AID 625);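 note: thallium influx through GIRK channels coupled to M4 in HEK293 cells with BTC-AM dye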
STUDY CONDITIONS: at 10 µM, actives lie on both sides
Cut-off 0.006 on fluorescence slope, inclusive. At or above means Met; below means Not met.

Task: Hello, I need to know if COC(=O)c1ccc(CN(c2ccccc2OC)S(=O)(=O)c2cccs2)o1 has measured fluorescence slope not below 0.006. Thanks!
Result: Met

Task: Is the recorded value of fluorescence slope equal to or greater than 0.006 for this compound? O=C(CSc1nnc(Cn2nnc(-c3ccccc3)n2)n1-c1ccccc1)Nc1ccc(F)cc1
Result: Not met

Task: Decide: is the reported value of fluorescence slope for CCOC(=O)C1CCCN(Cc2nc(N)nc(Nc3ccccc3)n2)C1 (configuration not stated) equal to or greater than 0.006?
Result: Not met

Task: Check the entry CC1CCN(S(=O)(=O)c2ccc(S(=O)(=O)NCC(=O)C(C)(C)C)cc2)CC1 : does fluorescence slope equal or exceed 0.006?
Result: Met

Task: Hi, just wondering whether CCNC(=O)CC1C(=O)N(c2ccccc2)C(=O)N1Cc1ccc(OC)cc1 (configuration not stated) shows fluorescence slope of 0.006 or higher.
Result: Not met

Task: Does COc1ccc(CC(=O)NCc2ccccc2)cc1S(=O)(=O)N1CCOCC1 have a reported fluorescence slope of at least 0.006?
Result: Not met

Task: Tell me whether fluorescence slope is at least 0.006 here: CCOC(=O)N1CCC(N(C(=O)Nc2ccc(Cl)c(Cl)c2)C(C)CC)CC1 (configuration not stated)
Result: Not met

Task: Could you verify whether the entry Cc1ccc(C)c(NC(=O)C2CCC(C)(C(=O)O)C2(C)C)c1 (configuration not stated) shows fluorescence slope of no less than 0.006?
Result: Met

Task: Decide: is the reported value of fluorescence slope for COC(=O)c1oc2ccc(Br)cc2c1NC(=O)CN1CCN(C)CC1 equal to or greater than 0.006?
Result: Not met

Task: Check this compound for fluorescence slope at or above 0.006: Cc1nnc(SCC(=O)NC(C)(C)C)n1CCc1ccccc1
Result: Not met

Task: Given CCc1nc2c(cnn2-c2ccc(Cl)cc2)c(=O)n1-c1ccc2c(c1)OCCO2 , state whether its fluorescence slope is at least 0.006.
Result: Met

Task: Textbook exercise: given the entry COc1ccccc1-c1cc(C(=O)NCCCn2ccnc2)no1 , state whether its fluorescence slope is greater than or equal to 0.006.
Result: Met

Task: Does the reported fluorescence slope for CC1CCN(C(=O)C2CCN(S(=O)(=O)c3cnc[nH]3)CC2)CC1 fall at or above the 0.006 mark?
Result: Not met

Task: Exam item: decide whether the reported fluorescence slope for CC1(C)Cc2c(sc3ncnc(N)c23)CO1 is at least 0.006.
Result: Met

Task: Does the compound Cc1cc(-c2ccccc2)nc2cc(C(N)=O)nn12 have recorded fluorescence slope that is 0.006 or more?
Result: Not met

Task: Is it the case that Cc1cc(C)c2c(=O)[nH]c(=O)n(Cc3ccccc3)c2n1 has fluorescence slope reaching or exceeding 0.006?
Result: Met

Task: Decide: fluorescence slope of CCN(CC)CC(=O)Nc1ccc(-c2nc3cc(NC(=O)CN(CC)CC)ccc3o2)cc1 >= 0.006?
Result: Not met

Task: Check the entry Cn1c(=O)n(C)c2cc(CNc3ccc(N4CCOCC4)c(C(=O)O)c3)ccc21 : does fluorescence slope equal or exceed 0.006?
Result: Met

Task: Determine whether measured fluorescence slope meets or exceeds 0.006 for CCN(CC)S(=O)(=O)c1ccc(C(=O)Oc2ccc3c(c2)OCO3)cc1
Result: Met

Task: Could you tell me if the measured fluorescence slope of CCOC(=O)Cc1nnc(NC(=O)CSc2nnc3c4ccccc4n(C(C)C)c3n2)s1 reaches 0.006 or more?
Result: Not met
